List of Activity values.
system: Mus musculus; assay: Toxicity in ip dosed albino mouse assessed as barbiturate-induced sleep by measuring loss of righting reflex relative to control; assay type: organism-based; conditions: in vivo
I only need the number, in %, no unit after it.

Some molecules with recorded Activity:
MOLECULE	Activity (%)
O=C1c2ccccc2N(c2ccccc2)CCN1CCN1CCCC1	60
O=C1c2ccccc2N(c2ccccc2)CCN1CCN1CCCCC1	45
Nc1ccc2c(c1)C(=O)NCCN2c1ccc([N+](=O)[O-])cc1	70
CCN(CC)CCN1CCN(c2ccccc2)c2ccccc2C1=O	40
CN(C)CCCN1CCN(c2ccccc2)c2ccccc2C1=O	35
O=C1NCCN(c2ccc([N+](=O)[O-])cc2)c2ccc([N+](=O)[O-])cc21	40

Determine its reported Activity: C[N+](C)(C)CCN1CCN(c2ccccc2)c2ccccc2C1=O.[I-]
-40

Determine its reported Activity: CC[N+](C)(CC)CCN1CCN(c2ccccc2)c2ccccc2C1=O.[I-]
-40

Determine its reported Activity: C[N+]1(CCN2CCN(c3ccccc3)c3ccccc3C2=O)CCCC1.[I-]
30

====

system: Mus musculus; test: Neurotoxicity in albino mouse at 5 mg/kg, po up to 5 mins by rotorod test relative to control; type: toxicity, organism-based; design: dose 5 mg/kg, route oral; conditions: in vivo
RESULT_TYPE: Activity (%)
I only need the number, in %, no unit after it.

Some molecules with recorded Activity:
MOLECULE	Activity [%]
CC(C[N+](C)(C)C)N1CCN(c2ccccc2)c2ccccc2C1=O.[I-] (centres undefined)	-7
C[N+](C)(C)CCN1CCN(c2ccccc2)c2ccccc2C1=O.[I-]	-21
CC[N+](C)(CC)CCN1CCN(c2ccccc2)c2ccccc2C1=O.[I-]	20

From here, focus on the item given below.
// fetch Activity for C[N+](C)(C)CCCN1CCN(c2ccccc2)c2ccccc2C1=O.[I-] ; system: Mus musculus
70

====

assay: Acute toxicity in ip dosed albino mouse measured within 24 hrs; format: organism-based; conditions: in vivo
RESULT_TYPE: log10(LD50 at 24 h) (log10 of the value in mg/kg)
For clarity, the numbers are log10 values of LD50 at 24 h expressed in mg/kg.

Some molecules with recorded log10(LD50 at 24 h):
MOLECULE	log10(LD50 at 24 h)
CN(C)CCCN1CCN(c2ccccc2)c2ccccc2C1=O	2.06
CC(CN(C)C)N1CCN(c2ccccc2)c2ccccc2C1=O (stereo unspecified)	2.11
CCN(CC)CCN1CCN(c2ccccc2)c2ccccc2C1=O	1.88
C[N+](C)(C)CCCN1CCN(c2ccccc2)c2ccccc2C1=O.[I-]	1.70

Determine its reported log10(LD50 at 24 h): CC[N+](C)(CC)CCN1CCN(c2ccccc2)c2ccccc2C1=O.[I-]
1.18

Determine its reported log10(LD50 at 24 h): C[N+]1(CCN2CCN(c3ccccc3)c3ccccc3C2=O)CCCCC1.[I-]
1.18

Determine its reported log10(LD50 at 24 h): CC(C[N+](C)(C)C)N1CCN(c2ccccc2)c2ccccc2C1=O.[I-] (stereo unspecified)
1.18

Determine its reported log10(LD50 at 24 h): C[N+](C)(C)CCN1CCN(c2ccccc2)c2ccccc2C1=O.[I-]
1.54

Determine its reported log10(LD50 at 24 h): CNC1=Nc2ccc(Cl)cc2C(c2ccccc2)=[N+]([O-])C1 [CHLORDIAZEPOXIDE]
2.89

Determine its reported log10(LD50 at 24 h): CN(C)CCN1CCN(c2ccccc2)c2ccccc2C1=O
2.00

Determine its reported log10(LD50 at 24 h): O=C1c2ccccc2N(c2ccccc2)CCN1CCN1CCCCC1
1.88

Determine its reported log10(LD50 at 24 h): C[N+]1(CCN2CCN(c3ccccc3)c3ccccc3C2=O)CCCC1.[I-]
1.00

Determine its reported log10(LD50 at 24 h): O=C1c2ccccc2N(c2ccccc2)CCN1CCN1CCCC1
1.90

====

test system: Ileum; assay: Antiacetylcholine activity in guinea pig ileum assessed as dose required to decrease 50 to 100% of acetylcholine-induced effect treated 5 mins before acetylcholine addition; assay type: functional, Cavia porcellus
List of Activity values.
Note to self: number, then unit, no commentary.

Some compounds with recorded Activity:
COMPOUND	TARGET_OR_SYSTEM	Activity
C[N+](C)(C)CCCN1CCN(c2ccccc2)c2ccccc2C1=O.[I-]	Ileum	50 µg/mL
CC[N+](C)(CC)CCN1CCN(c2ccccc2)c2ccccc2C1=O.[I-]	Ileum	50 µg/mL
CC(C[N+](C)(C)C)N1CCN(c2ccccc2)c2ccccc2C1=O.[I-] (stereo unspecified)	Ileum	200 µg/mL
O=C1NCCN(c2ccc([N+](=O)[O-])cc2)c2ccc([N+](=O)[O-])cc21	Ileum	200 µg/mL

Determine its reported Activity: Nc1ccc(N2CCNC(=O)c3ccccc32)cc1
200 µg/mL

Determine its reported Activity: C[N+]1(CCN2CCN(c3ccccc3)c3ccccc3C2=O)CCCCC1.[I-]
50 µg/mL

Determine its reported Activity: CN(C)CCN1CCN(c2ccccc2)c2ccccc2C1=O
100 µg/mL

====

system: Ileum; assay: Antiacetylcholine activity in guinea pig ileum assessed as dose required to decrease 50 to 100% of acetylcholine-induced effect treated 5 mins before acetylcholine addition; type: functional, Cavia porcellus
List of Activity values.
I only need the number, in µg/mL, no unit after it.

Some compounds with recorded Activity:
COMPOUND	Activity, µg/mL
Nc1ccc2c(c1)C(=O)NCCN2c1ccc([N+](=O)[O-])cc1	50
O=C1c2ccccc2N(c2ccccc2)CCN1CCN1CCCC1	100
CC(CN(C)C)N1CCN(c2ccccc2)c2ccccc2C1=O (stereo not given)	50
CN(C)CCCN1CCN(c2ccccc2)c2ccccc2C1=O	100

Determine its reported Activity: C[N+]1(CCN2CCN(c3ccccc3)c3ccccc3C2=O)CCCC1.[I-]
100

====

List of Activity values.
tested on: Mus musculus; test: Toxicity in albino mouse assessed as translatory movements at 5 mg/kg, ip relative to control; format: organism-based; parameters: dose 5 mg/kg, route intraperitoneal; details: in vivo
I only need the number, in %, no unit after it.

Some molecules with recorded Activity:
MOLECULE	TARGET_OR_SYSTEM	VAL
C[N+](C)(C)CCN1CCN(c2ccccc2)c2ccccc2C1=O.[I-]	Mus musculus	20
CC[N+](C)(CC)CCN1CCN(c2ccccc2)c2ccccc2C1=O.[I-]	Mus musculus	-3
C[N+]1(CCN2CCN(c3ccccc3)c3ccccc3C2=O)CCCC1.[I-]	Mus musculus	-8

Determine its reported Activity: C[N+]1(CCN2CCN(c3ccccc3)c3ccccc3C2=O)CCCCC1.[I-]
-20

Determine its reported Activity: CC(C[N+](C)(C)C)N1CCN(c2ccccc2)c2ccccc2C1=O.[I-] (stereo unspecified)
1

Determine its reported Activity: C[N+](C)(C)CCCN1CCN(c2ccccc2)c2ccccc2C1=O.[I-]
-5

====

tested on: Mus musculus; assay: Toxicity in ip dosed albino mouse assessed as barbiturate-induced sleep by measuring loss of righting reflex administered 45 mins before barbiturate challenge relative to control; format: organism-based; conditions: in vivo, 0.75 h
Rule: Activity below 10% gives Criterion met, anything at or above gives Criterion not met.

COMPOUND	CATEGORY
CN(C)CCN1CCN(c2ccccc2)c2ccccc2C1=O	Criterion not met
CC(CN(C)C)N1CCN(c2ccccc2)c2ccccc2C1=O (stereo not given)	Criterion not met
Nc1ccc2c(c1)C(=O)NCCN2c1ccc([N+](=O)[O-])cc1	Criterion not met
C[N+]1(CCN2CCN(c3ccccc3)c3ccccc3C2=O)CCCC1.[I-]	Criterion met

I wonder whether C[N+](C)(C)CCN1CCN(c2ccccc2)c2ccccc2C1=O.[I-] has Activity below 10%. Can you tell?
Criterion not met

====

List of Activity values.
assay: Antinoradrenaline activity in isolated Wistar rat caudal artery assessed as dose required to decrease 20 to 50% of noradrenaline-induced effect per 6 mL/min after 15 mins; assay type: functional
I only need the number, in µg/min, no unit after it.

COMPOUND	RESULT_TYPE	UNIT	VAL
C[N+]1(CCN2CCN(c3ccccc3)c3ccccc3C2=O)CCCC1.[I-]	Activity	µg/min	5
C[N+]1(CCN2CCN(c3ccccc3)c3ccccc3C2=O)CCCCC1.[I-]	Activity	µg/min	25
O=C1c2ccccc2N(c2ccccc2)CCN1CCN1CCCCC1	Activity	µg/min	25
CN(C)CCN1CCN(c2ccccc2)c2ccccc2C1=O	Activity	µg/min	200
CC(CN(C)C)N1CCN(c2ccccc2)c2ccccc2C1=O (stereo not drawn)	Activity	µg/min	160

Determine its reported Activity: CCN(CC)CCN1CCN(c2ccccc2)c2ccccc2C1=O
80

Determine its reported Activity: CNC1=Nc2ccc(Cl)cc2C(c2ccccc2)=[N+]([O-])C1 [CHLORDIAZEPOXIDE]
18

Determine its reported Activity: CC[N+](C)(CC)CCN1CCN(c2ccccc2)c2ccccc2C1=O.[I-]
50

Determine its reported Activity: CN(C)CCCN1CCN(c2ccccc2)c2ccccc2C1=O
160

Determine its reported Activity: C[N+](C)(C)CCN1CCN(c2ccccc2)c2ccccc2C1=O.[I-]
50

Determine its reported Activity: CC(C[N+](C)(C)C)N1CCN(c2ccccc2)c2ccccc2C1=O.[I-] (stereo not drawn)
50

Determine its reported Activity: C[N+](C)(C)CCCN1CCN(c2ccccc2)c2ccccc2C1=O.[I-]
100

Determine its reported Activity: O=C1c2ccccc2N(c2ccccc2)CCN1CCN1CCCC1
15

Reference source: ChEMBL document CHEMBL3272273
